target-entity: PD-1 on PD-1-positive cells (EL4 cells)
procedure-summary: inhibition of PD-L1-human Fc (10 µg/mL) binding to EL4 cells, flow cytometry, competitor PD-L1-human Fc
reported-metric: EC50 (µM)

INSERT INTO assay_data (substance, target_entity, experimental_value) VALUES
  ('soluble αPD-1-iTEP fusion, αPD-1(scFv) fused to the amphiphilic diblock iTEP (GAGVPG)70-(GVLPGVG)56-(GC)4', 'PD-1 on PD-1-positive cells (EL4 cells)', 4.59);
